Tested on: B16 melanoma cells
test: Measurement of 50% inhibitory concentration of cAMP production (IC50) with 10 nM melanocyte-stimulating hormone
Assay type: cell-based
test.parameters: B16 melanoma cells, 10 nM melanocyte-stimulating hormone, 5 min incubation; read-out: 50% inhibitory concentration (IC50) of cAMP production
Experimental: The 50% inhibitory concentration of cAMP production (IC50) according to the present invention regarding the compounds having a melanocyte-stimulating hormone (MSH) inhibitory activity is measured and defined as follows. […] The neutralized extract solution is centrifuged at 4° C. at 12,000 rpm for 10 minutes, and the amount of cAMP in the supernatant is quantitatively determined using “Biotrak cAMP EIA System” (manufactured by Amersham Pharmacia Biotech), as follows. […]
Non-standard residues stand in square brackets, D forms with d. Residues, ends and D or L forms follow the SMILES beside them. 1Nal = N[C@@H](Cc1cccc2ccccc12)C(=O)O; d1Nal = N[C@H](Cc1cccc2ccccc12)C(=O)O; d2Nal = N[C@H](Cc1ccc2ccccc2c1)C(=O)O
Listed here: items and their measured IC50.
Reply numerically in nM, unit not repeated.

{"molecule": "CC(C)C[C@H](NC(=O)[C@H](CCCNC(=N)N)NC(=O)[C@@H](N)Cc1cccc2ccccc12)C(N)=O [L-1-Nal-Arg-LeuNH2] (H-[1Nal]-Arg-Leu-NH2)", "experimental.target": "B16 melanoma cells", "assay.readout": "IC50", "numeric.result": 470}
{"molecule": "CC(C)C[C@H](NC(=O)[C@H](CCCNC(=N)N)NC(=O)[C@H](N)Cc1cccc2ccccc12)C(N)=O [D-1-Nal-Arg-LeuNH2] (H-[d1Nal]-Arg-Leu-NH2)", "experimental.target": "B16 melanoma cells", "assay.readout": "IC50", "numeric.result": 540}
{"molecule": "CC(C)C[C@H](NC(=O)[C@H](CCCNC(=N)N)NC(=O)[C@H](N)Cc1c[nH]c2ccccc12)C(N)=O [D-Trp-Arg-LeuNH2, reference compound] (H-[dW]-Arg-Leu-NH2)", "experimental.target": "B16 melanoma cells", "assay.readout": "IC50", "numeric.result": 230}

Now take the following molecule into account.
Enquiry: Under B16 melanoma cells: IC50 value of CC(C)C[C@H](NC(=O)[C@H](CCCNC(=N)N)NC(=O)[C@H](N)Cc1ccc2ccccc2c1)C(N)=O [D-2-Nal-Arg-LeuNH2] (H-[d2Nal]-Arg-Leu-NH2) ?
Return: 42
